System: DMS-273
Assay: NCI tumour cell line growth inhibition, 48 h
Active and inactive are the calls of the source. Cut-off read from the data, not from the text of the source: active = GI50 up to about 1.1 µM and inactive = higher.
Classes used: 1 (active), 0 (inactive)

[[record]]
compound = "CCCCCOCC(O)CO (configuration not stated)"
group = 0

[[record]]
compound = "CCc1cccc(NC(=O)c2cc(/C=C/c3ccccc3)nc(S)n2)c1"
group = 0

[[record]]
compound = "N#CC(C#N)=c1ccc(=C2NCC3CCCN23)cc1 (configuration not stated)"
group = 0

[[record]]
compound = "O=C1C2CCC(C2)C12CC1(c3ccccc3)C(=O)c3ccccc3N1O2 (configuration not stated)"
group = 0

[[record]]
compound = "CC(=O)NNc1nc(C)c(C(=O)NNC(=O)C(=O)Nc2c(C)cccc2C)s1"
group = 0

[[record]]
compound = "O=C(Nc1ccccc1-c1nn(C(=S)Nc2ccccc2)c(=S)n(C(=S)Nc2ccccc2)c1=O)C(F)(F)F"
group = 0

[[record]]
compound = "CCOC1=C2N=C(C(CC)c3ccc(F)cc3)N=C2C(=O)c2ccccc21 (configuration not stated)"
group = 0

[[record]]
compound = "CC(C)(C)CC(C)(C)NCC(O)COc1ccc(C(C)(C)c2ccc(OCC(O)CNC(C)(C)CC(C)(C)C)cc2)cc1 (configuration not stated)"
group = 1

[[record]]
compound = "Cc1ccc(C2COc3cc(O)c(O)cc3C2)cc1 (configuration not stated)"
group = 0

[[record]]
compound = "CCOC(=O)C1=C(C)N(NC(N)=O)C2(N)N(NC(N)=O)C(C)=C(C(=O)OCC)C12C#N (configuration not stated)"
group = 0

[[record]]
compound = "O=C(CC1(O)C(=O)Nc2ccccc21)c1ccc(Cl)cc1Cl (configuration not stated)"
group = 0

[[record]]
compound = "COc1ccc2c(c1)Oc1cc(O)ccc1[C@@H]2c1ccccc1C(=O)NC(C)c1ccccc1 (some centres not stated)"
group = 0


----------
Measured GI50 accompanies every entry in the list below.
System: M19-MEL
Test: NCI tumour cell line growth inhibition, 48 h
Activity calls are given as the source filed them. Cut-off read from the data, not from the text of the source: active = GI50 up to about 1.1 µM and inactive = higher.
Assay Endpoint: GI50

[[record]]
molecule = "O=C(CC1(O)C(=O)Nc2ccccc21)c1ccncc1 (stereo not drawn)"
result = "> 100 µM (inactive)"

[[record]]
molecule = "CC(=O)N1CCN(C=S)CC1"
result = "> 100 µM (inactive)"

[[record]]
molecule = "COc1ccc(C2=NC(CO)[C@H](c3ccccc3)O2)cc1OC (stereo partly drawn)"
result = "> 100 µM (inactive)"


----------
GI50 by entry:
Tested on: KM12
Experiment: NCI tumour cell line growth inhibition, 48 h
Calls of active or inactive are those of the source. Cut-off read from the data, not from the text of the source: active = GI50 up to about 1.1 µM and inactive = higher.
Assay Endpoint: GI50

[[record]]
compound = "CC(=O)OCC1OC(n2c3c(cc(C#N)c2=O)CCCCCC3)C(OC(C)=O)C(OC(C)=O)C1OC(C)=O (centres undefined)"
measured_target = "KM12"
result = "> 100 µM (inactive)"

[[record]]
compound = "O=C1CSC(=S)N1c1ccco1"
measured_target = "KM12"
result = "21.9 µM (inactive)"

[[record]]
compound = "Clc1c2nc3ccccc3c-2[nH]c2ccccc12"
measured_target = "KM12"
result = "3.94 µM (inactive)"

[[record]]
compound = "COC(CO[Si](C)(C)N[Si](C)(C)OCC(OC)c1ccccc1)c1ccccc1 (centres undefined)"
measured_target = "KM12"
result = "> 100 µM (inactive)"

[[record]]
compound = "COc1ncnc2c1cnn2Cc1cn(CCCCO)nn1"
measured_target = "KM12"
result = "> 100 µM (inactive)"

[[record]]
compound = "CSc1ccccc1P(CCP(c1ccccc1SC)c1ccccc1SC)c1ccccc1SC"
measured_target = "KM12"
result = "18.6 µM (inactive)"

[[record]]
compound = "Nc1ccccc1.O=C(O)C(C(F)(F)F)C(F)(F)F"
measured_target = "KM12"
result = "71.8 µM (inactive)"

[[record]]
compound = "O=c1c(O)c(-c2cc(O)c(O)c(O)c2)oc2cc(O)cc(O)c12"
measured_target = "KM12"
result = "17.7 µM (inactive)"

[[record]]
compound = "NS(=O)(=O)c1ccccc1C(=O)N/N=C(\\c1nc2ccc([N+](=O)[O-])cc2[nH]c1=O)C(O)c1ccc([N+](=O)[O-])cc1 (centres undefined)"
measured_target = "KM12"
result = "66.2 µM (inactive)"


----------
# GI50 per record follows
Test system: U-251
Assay: NCI tumour cell line growth inhibition, 48 h
The source made the active and inactive calls. Cut-off read from the data, not from the text of the source: active = GI50 up to about 1.1 µM and inactive = higher.
Assay Endpoint: GI50

[[record]]
compound = "O=C(O)CN(CC(=O)O)c1ccccc1"
measured_target = "U-251"
result = "74.5 µM (inactive)"

[[record]]
compound = "COc1ccccc1NC(=O)CC(=O)n1nc(C)c(/N=N/c2ccccc2C(=O)O)c1C"
measured_target = "U-251"
result = "95.7 µM (inactive)"

[[record]]
compound = "CC1=C2C(=O)[C@H]3[C@@H](CC=C4C[C@@H](O)CC[C@@]43C)[C@@H]2CC[C@]12O[C@@H]1C[C@H](C)CN[C@H]1[C@H]2C [JERVINE]"
measured_target = "U-251"
result = "> 41.4 µM (inactive)"


----------
System: SNB-75
Experiment: NCI tumour cell line growth inhibition, 48 h
Calls of active or inactive are those of the source. Cut-off read from the data, not from the text of the source: active = GI50 up to about 1.1 µM and inactive = higher.
Reported GI50 values for the following compounds.
Assay Endpoint: GI50

[[record]]
compound = "O=C(OCC1CC(C2(O)CCCCC2)C(=O)O1)c1ccccc1 (stereo not given)"
assay_endpoint = "GI50"
result = "> 100 µM (inactive)"

[[record]]
compound = "O=C(O)CCC(NC(=O)c1ccc(Nc2nc3ccccc3nc2C(=O)O)cc1)C(=O)O (stereo not given)"
assay_endpoint = "GI50"
result = "> 100 µM (inactive)"

[[record]]
compound = "CC1OC(n2cc(F)c(=O)[nH]c2=O)C(O[Si](C)(C)C(C)(C)C)C1O[Si](C)(C)C(C)(C)C (stereo not given)"
assay_endpoint = "GI50"
result = "15.5 µM (inactive)"

[[record]]
compound = "CC(=O)NNc1nc(C)c(C(=O)NNC(=O)C(=O)Nc2c(C)cccc2C)s1"
assay_endpoint = "GI50"
result = "96.4 µM (inactive)"

[[record]]
compound = "CCOc1ccc(-n2c(=O)c3nn4c(=O)n(-c5ccc(OCC)cc5)c(=O)c4nn3c2=O)cc1"
assay_endpoint = "GI50"
result = "20.3 µM (inactive)"


----------
This section presents compounds with their documented GI50 values.
Test system: MOLT-4
Experiment: NCI tumour cell line growth inhibition, 48 h
The source made the active and inactive calls. Rule as the data show it: active = GI50 up to about 1.1 µM and inactive = higher.
Assay Endpoint: GI50

[[record]]
compound = "CC1(C)C(=O)C2(OS(=O)(=O)C(F)(F)F)CCC1C2 (centres undefined)"
measured_target = "MOLT-4"
result = "> 100 µM (inactive)"

[[record]]
compound = "CCC(C)OC(=O)C1C2CCC(O2)C1C(=O)O (centres undefined)"
measured_target = "MOLT-4"
result = "> 87.1 µM (inactive)"

[[record]]
compound = "COc1ccc2[nH]c(C(O)(Cc3cccnc3)Cc3cccnc3)cc2c1"
measured_target = "MOLT-4"
result = "> 100 µM (inactive)"

[[record]]
compound = "CSc1ccccc1P(CCP(c1ccccc1SC)c1ccccc1SC)c1ccccc1SC"
measured_target = "MOLT-4"
result = "2.22 µM (inactive)"

[[record]]
compound = "c1ccc(CN2C3C4N(Cc5ccccc5)C2C2N(Cc5ccccc5)C(C(N2Cc2ccccc2)N4Cc2ccccc2)N3Cc2ccccc2)cc1"
measured_target = "MOLT-4"
result = "> 100 µM (inactive)"

[[record]]
compound = "CCOC(=O)C(NC(=O)Nc1ccc(C)cc1)(OCC)C(F)(F)F (centres undefined)"
measured_target = "MOLT-4"
result = "> 100 µM (inactive)"

[[record]]
compound = "COC(CO[Si](C)(C)N[Si](C)(C)OCC(OC)c1ccccc1)c1ccccc1 (centres undefined)"
measured_target = "MOLT-4"
result = "> 100 µM (inactive)"

[[record]]
compound = "Cc1c2c(cc[n+]1C)O[B-](c1ccccc1)(c1ccccc1)O2"
measured_target = "MOLT-4"
result = "35.5 µM (inactive)"

[[record]]
compound = "COc1cc(C(c2cc3c(cc2O)OCO3)N2CCCCC2)cc(OC)c1OC (centres undefined)"
measured_target = "MOLT-4"
result = "2.15 µM (inactive)"

[[record]]
compound = "c1ccc2c(c1)OC(N1CCCC1)c1cnc(N3CCCC3)nc1-2 (centres undefined)"
measured_target = "MOLT-4"
result = "24 µM (inactive)"

[[record]]
compound = "COc1cc(OC)c2c(O)c3c(cc2c1)CC(C)(C)CC3=O"
measured_target = "MOLT-4"
result = "> 76.6 µM (inactive)"

[[record]]
compound = "C[C@H](O)CCC(=O)c1ccoc1"
measured_target = "MOLT-4"
result = "> 100 µM (inactive)"

[[record]]
compound = "NC(=S)N1N=C2c3ccccc3CC[C@@H]2[C@@H]1c1ccccc1"
measured_target = "MOLT-4"
result = "4.05 µM (inactive)"

[[record]]
compound = "O=C1C2c3[nH]c4ccccc4c3C3CCCCCCC3C2C(=O)N1c1ccccc1 (centres undefined)"
measured_target = "MOLT-4"
result = "> 10 µM (inactive)"

[[record]]
compound = "O=C(c1cccc2ccccc12)N1CCC(C2CCN(C(=O)c3cccc4ccccc34)CC2)CC1"
measured_target = "MOLT-4"
result = "> 100 µM (inactive)"

[[record]]
compound = "COC(=O)/C=C/c1c(CC=C(C)C)ncn1C"
measured_target = "MOLT-4"
result = "5.31 µM (inactive)"

[[record]]
compound = "Nc1ncc2ncn(C3CCC(CO)O3)c2n1 (centres undefined)"
measured_target = "MOLT-4"
result = "> 100 µM (inactive)"

[[record]]
compound = "CCNC(=S)N/N=C/c1cc(OC)ccc1O"
measured_target = "MOLT-4"
result = "67.1 µM (inactive)"

[[record]]
compound = "CCOP(=O)(OCC)/C(C#N)=C/c1cccn1C(C)C"
measured_target = "MOLT-4"
result = "> 100 µM (inactive)"

[[record]]
compound = "COc1ccccc1NC(=S)N/N=C(/C)c1ccccn1"
measured_target = "MOLT-4"
result = "< 0.01 µM (active)"

[[record]]
compound = "COc1cc2oc(-c3ccc4c(c3)OCO4)c(OC)c(=O)c2c(OC)c1O"
measured_target = "MOLT-4"
result = "45.7 µM (inactive)"

[[record]]
compound = "N#C/C(=C1\\SCC(=O)N1c1ccccc1)c1nc2ccccc2[nH]1"
measured_target = "MOLT-4"
result = "> 100 µM (inactive)"

[[record]]
compound = "N#CS/C(C(Cl)=C(Cl)Cl)=C(/Cl)[N+](=O)[O-]"
measured_target = "MOLT-4"
result = "0.6 µM (active)"

[[record]]
compound = "CCOC1=C2N=C(C(CC)c3ccc(F)cc3)N=C2C(=O)c2ccccc21 (centres undefined)"
measured_target = "MOLT-4"
result = "18 µM (inactive)"

[[record]]
compound = "CC1=NN=C(N)N/C1=C\\C(Sc1ccc(Cl)cc1)c1ccc(Cl)cc1Cl (centres undefined)"
measured_target = "MOLT-4"
result = "7.29 µM (inactive)"

[[record]]
compound = "CN(C)CC(C)(C)/C(=N\\Nc1ccccc1)c1ccccc1"
measured_target = "MOLT-4"
result = "46.3 µM (inactive)"

[[record]]
compound = "COc1ccccc1NC(=O)CC(=O)n1nc(C)c(/N=N/c2ccccc2C(=O)O)c1C"
measured_target = "MOLT-4"
result = "> 100 µM (inactive)"

[[record]]
compound = "O=C(CC1(O)C(=O)Nc2ccccc21)c1ccc(Cl)cc1Cl (centres undefined)"
measured_target = "MOLT-4"
result = "> 100 µM (inactive)"

[[record]]
compound = "O=C1CC[C@@H](S(=O)(=O)c2ccccc2)[C@@H](/C=C/c2ccccc2)O1"
measured_target = "MOLT-4"
result = "> 100 µM (inactive)"

